Listed below: melting point values for each entry.

>  <compound>
COc1cc(C)c(C(=O)c2c(Cl)cccc2Cl)cc1OCC1CC1

>  <melting point>
152 °C

$$$$
>  <compound>
CSC(=O)C(C)(C)NC(=O)c1cc2c(n(CC3CCCCC3)c1=O)CCCCCC2

>  <melting point>
196 to 198 °C

$$$$
>  <compound>
NC(=O)c1cc(-c2ncc(C(F)(F)F)cc2Cl)ccc1Cl

>  <melting point>
167 to 168 °C

$$$$
>  <compound>
CON=C(C)COc1c(-c2ccc(S(C)(=O)=O)cc2)cnn(-c2ccc(F)c(F)c2)c1=O

>  <melting point>
143 to 145 °C

$$$$
>  <compound>
NC(=O)C1C=Cc2ccccc2N1C(=O)c1ccccc1 (stereo unspecified)

>  <melting point>
169 to 171 °C

$$$$
>  <compound>
NC(=O)c1ccc(F)nc1N

>  <melting point>
198 to 200 °C

$$$$

What value of melting point has been reported for the following compound? COc1ccc(C2CN(C)C(=O)O2)cc1OC (stereo unspecified) 132 to 133 °C

One more compound: O=C1Nc2ccccc2N(C(=O)N2CCCC(CCN3CCCCCC3)C2)c2ncccc21 (stereo unspecified) 152 to 154 °C

# repeat for COc1ccc(-c2cc(F)ccc2C#N)cc1 145 to 147 °C

And C[C@H](NC(=O)OC(C)(C)C)C(=O)NC1N=C(c2ccccn2)c2ccccc2N(C)C1=O (stereo partly specified) ? 228 to 229 °C

Next record, please: N#CC(c1ccc(Cl)c(C(F)(F)F)c1)N1CCOCC1 (stereo unspecified) 73 to 74 °C

Now give it for CC(C)(C)c1ccc(N(Cc2cccc3ccccc23)c2ccccc2)cc1 too. 135 to 137 °C

Please do the same for CC(=O)Cc1ccc2c(c1)-c1[nH]c3ccc(C(F)(F)F)cc3c1CC(=O)N2 as well. 295 to 297 °C

Can you check CC1CN(c2ccc(N3CC(CNc4nccs4)OC3=O)cc2F)CCC1=CC#N (stereo unspecified) next? 75 to 77 °C

Another: C=COC(=O)n1c(SCc2ccc(C)cn2)nc2cscc21 78 to 80 °C

Request: O=C1NC(OC(=O)c2ccccc2)C2=C1c1ccc(Cl)cc1C(c1ccccc1Cl)=NC2 (stereo unspecified) 140 to 142 °C

Try this compound too: CC(N)Cn1cc(-c2ccccc2)c2ccccc2c1=O (stereo unspecified) 104 °C

Would you kindly repeat that for CC(C)c1cc(-c2c3ccccc3c(Br)c3sc4ccccc4c23)cc(C(C)C)c1O ? 189 to 190 °C

Entry to check: CC(C)NC(=O)N1CCc2[nH]cnc2C1c1cccnc1 (stereo unspecified) 237 °C

Again, but for CC(=N)Nc1cccc(O)c1 115 to 118 °C

Query O=Cc1ccc(OCCN2C(=O)c3ccccc3C2=O)cc1 next 138 °C

Lookup CCOc1ccc(Nc2nc(Nc3ccc4c(c3)OCCO4)ncc2F)cc1 164 to 167 °C

Quick one: C#CCCOc1cc(C=O)ccc1OC 63 to 65 °C

Check CC(=O)NC[C@H]1CN(c2ccc(N3CCC(n4cc(C(F)F)nn4)CC3)c(F)c2)C(=O)O1 too. 186 to 188 °C

Quick one: Cc1ccc(C23CC4CC(C2)CC(c2ccc(C)cc2)(C4)C3)cc1 145 to 146 °C

---

List of melting point values.

>  <compound>
COc1ccc2c(Cl)cc(-c3ccc(Cl)cc3)nc2c1

>  <melting point>
153 to 155 °C

$$$$
>  <compound>
COc1ccc(Cl)cc1C1(O)C(=O)Nc2cc(C(F)(F)F)ccc21 (stereo not given)

>  <melting point>
207 to 210 °C

$$$$
>  <compound>
Cc1nccn1-c1cccc(O)c1

>  <melting point>
178 to 181 °C

$$$$
>  <compound>
CCN1CCCOc2cc(Nc3ncc(Cl)c(N[C@@H]4CCCC[C@H]4NS(C)(=O)=O)n3)ccc21

>  <melting point>
108 to 110 °C

$$$$

Now let's try a different one.
Item under review: CC(C)CCNc1nc(N2CCCCC2)nc2c(NCCC(C)C)nc(N3CCCCC3)nc12 . Reported melting point? 192 to 194 °C

---

observation-type: melting point

Worked cases, melting point given:
>  <compound>
COc1ccc(-c2ccc(=O)n(Cc3nc4cc(F)ccc4o3)c2)cc1

>  <melting point>
115 °C

$$$$
>  <compound>
Nc1ncnc2c1ncn2OCCSCP(=O)(O)O

>  <melting point>
211 to 213 °C

$$$$
>  <compound>
Cc1cc(-n2ccnc2)c2cccc(OCc3c(Cl)ccc(S(=O)(=O)N4CCCC[C@H]4C(=O)O)c3Cl)c2n1

>  <melting point>
208 °C

$$$$
>  <compound>
CCOc1ccccc1NC(=O)C(C)(C)CCCOc1cc(C)ccc1C

>  <melting point>
59 to 60 °C

$$$$
>  <compound>
N#CCC1CCN(c2ccc(N3C[C@H](CO)OC3=O)cc2)CC1

>  <melting point>
110 to 112 °C

$$$$
>  <compound>
Cc1ccc(-c2ccc(-c3ccccc3)s2)s1

>  <melting point>
102 °C

$$$$
>  <compound>
Cc1cccc(C)c1C(CNC(=O)OC(C)(C)C)COCc1c(F)cccc1F (stereo not given)

>  <melting point>
100 °C

$$$$
>  <compound>
CCn1cc(C(=O)O)c(=O)c2cc(F)c(N3CC(C)C(CN)C3)cc21 (stereo not given)

>  <melting point>
245 to 248 °C

$$$$
>  <compound>
CC(=O)OCC1CCc2c(C3=C(c4cn(C)c5ccccc45)C(=O)OC3=O)c3ccccc3n2C1 (stereo not given)

>  <melting point>
190 to 193 °C

$$$$
>  <compound>
CN1C[C@H](CN2CCC(O)(c3ccc(Cl)cc3)CC2)C=C2c3cccc4[nH]c(Cl)c(c34)C[C@H]21

>  <melting point>
> 192 °C

$$$$

Data request, read-out melting point, for CC(=O)CCS(=O)(=O)c1ccc(C=C(C)c2ccc3c(c2)C(C)(C)CCC3(C)C)cc1 135 to 136 °C

Same again, this time with NC(=O)Cc1nc(-c2ccccc2)c(-c2ccccc2)o1 129 to 133 °C

---

molecules and their reported melting point

// known answers, use as guide
>  <molecule>
COC(=O)c1sc2ccc(NC(C)=O)cc2c1N

>  <melting point>
248 °C

$$$$
>  <molecule>
Cc1cc(-c2ccc(C(F)(F)F)cc2)cc(-c2cccc(-c3cccc(S(N)(=O)=O)c3)n2)n1

>  <melting point>
250 °C

$$$$
>  <molecule>
CSc1c(C=O)c(=O)n(C)c(=O)n1C

>  <melting point>
104 °C

$$$$
>  <molecule>
CC(C)c1nn(-c2ccc(Cl)cc2NO)c(=O)o1

>  <melting point>
129 °C

$$$$
>  <molecule>
O=C(CNS(=O)(=O)c1ccc(Nc2nccc(Nc3ccc(F)cc3)n2)cc1)NC1CCOCC1

>  <melting point>
253 to 254 °C

$$$$

Report melting point for COc1cc2c(cc1C#N)[C@@H](O)[C@H](Br)C(C)(C)O2 (relative stereo) please. 144 to 146 °C

What do we get for CCOC(=O)C1(NC=O)Cc2ccccc2NC1=O (centres undefined) ? 187 to 190 °C

---

Below, each of the molecules is paired with its reported melting point value.
Numbers only; they are read as °C.

>  <molecule>
N#Cc1ccc(NC(=CNCC(=O)O)[N+](=O)[O-])cc1

>  <assay-result>
230

$$$$

Kindly review the next molecule as well.
Return reported melting point; argument: CN(C(=O)Cc1cccc2ccccc12)C1c2ccccc2CC1N1CCCC1 (stereo not given) 127

---

melting point values by entry

Examples with their reported melting point follow.
>  <compound>
Cc1cc2c(cc1C)C(O)(c1ccccc1Cl)C(=O)N2 (stereo not given)

>  <melting point>
251 to 253 °C

$$$$
>  <compound>
CCc1cccc(C2(O)C3CC4CC(C3)CC2C4)c1 (stereo not given)

>  <melting point>
63 to 65 °C

$$$$
>  <compound>
CSc1nn2c(N)cc(C)nc2c1S(=O)(=O)c1ccc(C)cc1

>  <melting point>
> 230 °C

$$$$

What value of melting point has been recorded for this entry: CCc1c(-c2ccc(OC)cc2)c2ccc3cc(OC)cc1n32 109 to 111 °C

Follow-up item: COc1cccc(N(C(=O)c2ccc(Br)s2)C2CC2)c1 60 °C

---

# melting point annotations

Solved cases (4 shown):
>  <compound>
CCC(CC)N1CCC(CNc2ccc(Cl)cc2C(=O)Nc2ccc(C)cn2)CC1

>  <assay-result>
122 to 124 °C

$$$$
>  <compound>
O=P(Oc1ccccc1)(Oc1ccc(-c2cssc2=S)cc1)Oc1ccc(-c2cssc2=S)cc1

>  <assay-result>
75 to 80 °C

$$$$
>  <compound>
Cc1ccncc1-c1cc2ccncc2c(N)n1

>  <assay-result>
280 to 282 °C

$$$$
>  <compound>
CC1CC2=C(Cc3ccccc32)C([Si](C)(C)C2CC(C)CC3=C2Cc2ccccc23)C1 (stereo not given)

>  <assay-result>
179 to 180 °C

$$$$

Item CCc1cnc(NC(=O)C2c3ccccc3Oc3ccccc32)o1 has what recorded melting point? 212 to 213 °C
